System: HEK-293T
Assay: Multiplex assay against HEK293T
Format: toxicity, cell-based
Conditions: human, 48 h, 10 µM, compound concentration 10 uM, replicate 2
Here, each record is paired with measured Population Hoechst High Intensity Objects (%) data.
API: value field is a number in %; no unit string.

# count of solved cases: 9
- molecule: "Cc1c(CC(=O)O)c2cccnc2n1Cc1ccc(S(C)(=O)=O)cc1C(F)(F)F"
  measuredResult: 7
- molecule: "NCCc1cn(S(=O)(=O)c2c(Cl)nc3sccn23)c2ccccc12.O=C(O)C(=O)O"
  measuredResult: 47
- molecule: "CC(C)COc1ccc(CNC(=O)N(Cc2ccc(F)cc2)C2CCN(C)CC2)cc1"
  measuredResult: 60
- molecule: "Cl.NCCc1ccc(O)c(O)c1 [DOPAMINE HYDROCHLORIDE]"
  measuredResult: 1
- molecule: "CC(C)c1noc(N2CCC(COc3ccc(-c4ccc(S(C)(=O)=O)cc4)nc3)CC2)n1"
  measuredResult: 5
- molecule: "CC[C@@H](C)Nc1nc(C)nc2c(-c3ccc(OC)nc3C)c(C)nn12"
  measuredResult: 18
- molecule: "C[C@H](N)COC(=O)[C@@H](CCCCN)NC(=O)Cc1c(-c2ccc3ccccc3c2)[nH]c2c1ccc1ccccc12"
  measuredResult: 4
- molecule: "CC(C)(C)c1cc(NC(=O)Nc2ccc(-c3cn4c(n3)sc3cc(OCCN5CCOCC5)ccc34)cc2)no1"
  measuredResult: 12
- molecule: "O=C(CCCc1ccccc1)Nc1nc2ccccc2c(=O)s1"
  measuredResult: 11

Look up Population Hoechst High Intensity Objects (%) of O=C(NCCN1CCC(n2c(=O)[nH]c3cc(Cl)ccc32)CC1)c1ccc(F)cc1 [HALOPEMIDE] and report it. 6

----------
Test system: Fibroblast
Assay: Multiplex assay against human fibroblast
Format: toxicity, cell-based
Conditions: 12 h, 10 µM, compound concentration 10 uM, replicate 2
Entry flag: YES if Population Pyknosed Nuclei (%) reaches 20%; NO if it does not.

Worked examples follow.
- molecule: "COC[C@@H](c1ccc(C(F)(F)F)cc1)N1CCN(C2(C)CCN(C(=O)c3c(C)ncnc3C)CC2)C[C@@H]1C.O=C(O)/C=C\\C(=O)O [VICRIVIROC MALEATE]"
  group: "NO"
- molecule: "Cc1cccc(NC(=O)CN2CCC(c3ccccn3)CC2)c1.Cl.Cl"
  group: "YES"
- molecule: "Cc1onc(-c2ccccc2Cl)c1C(=O)N(C)c1ccc(Cl)cc1"
  group: "YES"
- molecule: "CC(=O)Nc1cccc2c1c(Sc1ccc(Cl)cc1)c(C)n2CC(=O)O"
  group: "YES"
- molecule: "C[C@H](N)COC(=O)[C@@H](CCCCN)NC(=O)Cc1c(-c2ccc3ccccc3c2)[nH]c2c1ccc1ccccc12"
  group: "NO"

Please tell me: is the molecule `O=C(CCCc1ccccc1)Nc1nc2ccccc2c(=O)s1` at or over 20% in terms of Population Pyknosed Nuclei (%)? YES

Please tell me: is the molecule `COc1ccccc1N1CCN(C[C@@H](C(=O)NC(C)(C)C)c2ccccc2)CC1.Cl.Cl` at or over 20% in terms of Population Pyknosed Nuclei (%)? YES

Please tell me: is the molecule `Cc1c(CC(=O)O)c2cccnc2n1Cc1ccc(S(C)(=O)=O)cc1C(F)(F)F` at or over 20% in terms of Population Pyknosed Nuclei (%)? YES

Please tell me: is the molecule `N#Cc1cc(F)cc(-c2nc(-c3ccc(F)cn3)no2)c1` at or over 20% in terms of Population Pyknosed Nuclei (%)? YES

Please tell me: is the molecule `CC(/C=C1\SC(=S)N(CCCC(=O)Nc2ccc(C(=O)O)c(O)c2)C1=O)=C\c1ccccc1` at or over 20% in terms of Population Pyknosed Nuclei (%)? YES

Please tell me: is the molecule `CC(C)c1noc(N2CCC(COc3ccc(-c4ccc(S(C)(=O)=O)cc4)nc3)CC2)n1` at or over 20% in terms of Population Pyknosed Nuclei (%)? YES

Please tell me: is the molecule `Cc1noc(-c2ccc(-c3ccc(CC(=O)O)cc3)cc2)c1NC(=O)O[C@H](C)c1ccccc1Cl` at or over 20% in terms of Population Pyknosed Nuclei (%)? YES

Please tell me: is the molecule CCCCCC(O)/C=C/[C@H]1C(=O)CC(O)C1C/C=C\CCCC(=O)O (stereo partly drawn) at or over 20% in terms of Population Pyknosed Nuclei (%)? YES

Please tell me: is the molecule O=C(NCCN1CCC(n2c(=O)[nH]c3cc(Cl)ccc32)CC1)c1ccc(F)cc1 [HALOPEMIDE] at or over 20% in terms of Population Pyknosed Nuclei (%)? YES

Please tell me: is the molecule `NCCc1cn(S(=O)(=O)c2c(Cl)nc3sccn23)c2ccccc12.O=C(O)C(=O)O` at or over 20% in terms of Population Pyknosed Nuclei (%)? YES

Please tell me: is the molecule `Cc1cnc(-c2cc(N3CCN(C(=O)CCS(C)(=O)=O)CC3)ncc2Cl)c(C)c1` at or over 20% in terms of Population Pyknosed Nuclei (%)? NO

Please tell me: is the molecule `CCc1cc2cc(NS(=O)(=O)c3ccc(C#N)cc3)ccc2n(CC)c1=O` at or over 20% in terms of Population Pyknosed Nuclei (%)? YES
